Cited source: BindingDB's records for doi:10.1124/jpet.108.143271

Consider compounds characterized by their EC50 with Peroxisome proliferator-activated receptor alpha (Rattus norvegicus, UniProt P37230).
Sequence (P37230 whole entry): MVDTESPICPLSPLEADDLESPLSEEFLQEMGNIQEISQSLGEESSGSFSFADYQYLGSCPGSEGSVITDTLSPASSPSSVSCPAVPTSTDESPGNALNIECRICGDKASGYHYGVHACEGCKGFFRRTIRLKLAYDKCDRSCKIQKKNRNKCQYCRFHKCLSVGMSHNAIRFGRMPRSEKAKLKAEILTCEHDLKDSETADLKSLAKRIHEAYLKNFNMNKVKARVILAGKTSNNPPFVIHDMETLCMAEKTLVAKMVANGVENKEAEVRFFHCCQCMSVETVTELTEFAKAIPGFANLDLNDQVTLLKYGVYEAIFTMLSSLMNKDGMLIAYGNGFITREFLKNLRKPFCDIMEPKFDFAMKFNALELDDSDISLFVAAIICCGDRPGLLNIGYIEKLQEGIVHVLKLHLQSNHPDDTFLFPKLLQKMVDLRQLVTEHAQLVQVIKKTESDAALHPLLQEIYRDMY
readout-kind: EC50 (nM)

COC(=O)N(CC(=O)O)Cc1cccc(OCc2nc(-c3ccc(Cl)cc3)oc2C)c1 :: 317

I = CC(Oc1ccc(Oc2ccc(Cl)cc2)cc1)C(=O)O (stereo not drawn) [Clofop]
II = COC(=O)N(CC(=O)O)Cc1cc(OCc2nc(-c3ccc(Cl)cc3)oc2C)ccc1F
Returns: the label, I or II , whose recorded EC50 is the lower number. Return value: the label identifying the chosen record.
II

---

measured-target: Peroxisome proliferator-activated receptor delta (Homo sapiens)
Sequence (Q03181 whole entry): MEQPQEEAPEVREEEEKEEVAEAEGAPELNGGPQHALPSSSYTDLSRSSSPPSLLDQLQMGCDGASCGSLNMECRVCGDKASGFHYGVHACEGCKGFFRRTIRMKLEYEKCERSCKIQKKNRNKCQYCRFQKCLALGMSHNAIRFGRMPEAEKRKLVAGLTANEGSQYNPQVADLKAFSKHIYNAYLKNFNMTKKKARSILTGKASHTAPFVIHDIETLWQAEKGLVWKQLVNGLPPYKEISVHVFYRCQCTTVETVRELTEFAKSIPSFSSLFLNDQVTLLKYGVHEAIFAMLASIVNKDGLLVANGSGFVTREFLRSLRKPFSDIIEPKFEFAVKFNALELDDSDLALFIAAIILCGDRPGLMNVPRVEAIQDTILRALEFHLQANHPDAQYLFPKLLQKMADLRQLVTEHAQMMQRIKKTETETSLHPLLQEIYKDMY
pEC50: −log10 of the molar value.
readout-kind: pEC50

Give its pEC50 value. Item: "COC(=O)N(CC(=O)O)Cc1cc(OCc2nc(-c3ccc(Cl)cc3)oc2C)ccc1F"
< 4.60

---

measured-target: Peroxisome proliferator-activated receptor alpha (Homo sapiens, UniProt Q07869)
Sequence (Q07869 whole entry): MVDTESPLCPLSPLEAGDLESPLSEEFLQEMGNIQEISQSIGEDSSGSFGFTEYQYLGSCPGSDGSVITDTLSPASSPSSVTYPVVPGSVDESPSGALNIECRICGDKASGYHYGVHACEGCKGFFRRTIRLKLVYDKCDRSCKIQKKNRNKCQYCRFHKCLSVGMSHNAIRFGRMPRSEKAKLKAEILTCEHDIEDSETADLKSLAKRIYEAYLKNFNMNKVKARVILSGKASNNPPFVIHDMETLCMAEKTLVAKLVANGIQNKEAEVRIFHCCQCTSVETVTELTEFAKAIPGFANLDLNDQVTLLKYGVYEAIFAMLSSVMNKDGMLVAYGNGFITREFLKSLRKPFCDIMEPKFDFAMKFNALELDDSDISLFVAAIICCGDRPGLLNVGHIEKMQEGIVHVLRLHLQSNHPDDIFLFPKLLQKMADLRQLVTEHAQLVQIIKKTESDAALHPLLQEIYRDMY
protocol-details: PPAR alpha Fluorescence Polarization Assay
particulars: pH 8; 22 °C
readout-kind: pEC50
Scale: pEC50 equals -log10([C]), with [C] in mol/L.

Give its pEC50 value. Item: CC(Oc1ccc(Oc2ccc(Cl)cc2)cc1)C(=O)O (stereo unspecified)
4.94

---

Consider molecules characterized by their EC50 with Peroxisome proliferator-activated receptor alpha (Mesocricetus auratus, UniProt Q7TNH1).
Sequence (Q7TNH1 whole entry): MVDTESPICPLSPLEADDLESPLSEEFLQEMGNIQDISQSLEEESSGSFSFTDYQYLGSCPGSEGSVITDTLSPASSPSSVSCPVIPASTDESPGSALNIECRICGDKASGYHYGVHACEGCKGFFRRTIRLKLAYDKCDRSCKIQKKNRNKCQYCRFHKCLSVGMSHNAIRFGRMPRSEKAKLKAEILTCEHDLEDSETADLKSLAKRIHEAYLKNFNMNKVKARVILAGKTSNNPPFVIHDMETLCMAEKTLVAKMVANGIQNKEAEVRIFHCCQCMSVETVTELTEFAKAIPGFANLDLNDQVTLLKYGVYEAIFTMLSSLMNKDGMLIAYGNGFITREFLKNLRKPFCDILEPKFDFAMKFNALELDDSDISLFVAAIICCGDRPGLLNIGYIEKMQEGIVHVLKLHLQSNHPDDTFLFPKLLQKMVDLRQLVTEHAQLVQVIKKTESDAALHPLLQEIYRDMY
readout-kind: EC50 (µM)

1 = COC(=O)N(CC(=O)O)Cc1cc(OCc2nc(-c3ccc(Cl)cc3)oc2C)ccc1F
2 = CC(Oc1ccc(Oc2ccc(Cl)cc2)cc1)C(=O)O (configuration not stated) [Clofop]
Returns: the label, 1 or 2 , whose recorded EC50 is the lower number. Return value: the label identifying the chosen record.
1

---

measured-target: Peroxisome proliferator-activated receptor gamma (Homo sapiens)
Sequence (P37231 whole entry): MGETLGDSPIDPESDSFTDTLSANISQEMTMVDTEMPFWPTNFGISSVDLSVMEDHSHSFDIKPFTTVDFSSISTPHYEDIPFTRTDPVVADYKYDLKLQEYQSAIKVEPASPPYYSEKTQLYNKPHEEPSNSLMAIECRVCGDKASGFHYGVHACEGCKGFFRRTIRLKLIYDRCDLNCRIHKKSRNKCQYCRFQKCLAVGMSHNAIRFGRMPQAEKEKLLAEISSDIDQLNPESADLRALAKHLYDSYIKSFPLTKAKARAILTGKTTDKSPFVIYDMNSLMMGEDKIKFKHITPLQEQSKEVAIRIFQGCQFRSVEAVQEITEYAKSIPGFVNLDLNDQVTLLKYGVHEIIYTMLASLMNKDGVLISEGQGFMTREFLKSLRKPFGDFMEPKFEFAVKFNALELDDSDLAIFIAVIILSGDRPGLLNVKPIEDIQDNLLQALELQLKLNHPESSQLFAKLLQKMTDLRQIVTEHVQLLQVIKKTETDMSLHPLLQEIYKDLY
protocol-details: PPAR gamma Fluorescence Polarization Assay
particulars: pH 8; 22 °C
pIC50: −log10 of the molar value.
readout-kind: pIC50

Give its pIC50 value. Item: "COC(=O)N(CC(=O)O)Cc1cc(OCc2nc(-c3ccc(Cl)cc3)oc2C)ccc1F"
< 4.82
